target.system: Renin (Homo sapiens, UniProt P00797)
Sequence (P00797 whole entry): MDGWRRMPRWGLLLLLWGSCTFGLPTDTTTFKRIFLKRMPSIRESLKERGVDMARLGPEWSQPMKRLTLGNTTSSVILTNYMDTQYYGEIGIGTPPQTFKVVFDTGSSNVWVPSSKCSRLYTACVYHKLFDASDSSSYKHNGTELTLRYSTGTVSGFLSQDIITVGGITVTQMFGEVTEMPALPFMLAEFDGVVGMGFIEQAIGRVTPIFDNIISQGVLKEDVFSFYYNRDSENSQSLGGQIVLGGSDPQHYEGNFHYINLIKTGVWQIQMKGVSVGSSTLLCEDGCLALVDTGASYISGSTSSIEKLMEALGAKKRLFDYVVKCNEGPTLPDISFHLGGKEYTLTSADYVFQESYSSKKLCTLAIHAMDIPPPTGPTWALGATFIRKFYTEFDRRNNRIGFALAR
experiment: Inhibition of human recombinant renin by TR-FRET assay
measurement.type: pIC50
Please keep in mind that pIC50 is minus log10 of the molar concentration; only the number is needed.

Reference set (3 entries):
• COCCCOc1cc(C(=O)N(C[C@@H]2CNC[C@H]2OCc2ccc3ccccc3c2)C(C)C)ccc1OC (racemic) = 7.05
• COCCCOc1cc(C(=O)N(C[C@@H]2CNC[C@H]2OCc2cccc3ccccc23)C(C)C)ccc1OC (racemic) = 6.70
• COCCCOc1cc(C(=O)N(C[C@@H]2CNC[C@H]2OC(=O)N2CCCC2)C(C)C)ccc1OC (racemic) = 5.94

Now look at this entry.
Find the measured pIC50: item COCCCOc1cc(C(=O)N(C[C@@H]2CNC[C@H]2OC(=O)NCc2ccccc2)C(C)C)ccc1OC , target or system Renin (Homo sapiens, UniProt P00797).
7.40

# credit: ChEMBL document CHEMBL3400053
